Test system: human AR (Homo sapiens, UniProt P10275)
Test description: cell-based
Set-up: species or system AR2 cells (HepG2-AR2); NanoLuc complementation AR homodimerization, antagonist mode, loss of agonist-induced luminescence, AC50 by Hill fit
Condition: hill_ga, spid=No_RNA; antagonist mode, 10 nM agonist stimulus, 18 h, no CYP expressed
Criterion: AC50 strictly under 50 µM. Met: met. Not met: not met.

>>> class_assignment("CC12CC1(C)C(=O)N(c1cc(Cl)cc(Cl)c1)C2=O (centres unmarked)")
"met"
>>> class_assignment("CC1(C)C(C=C(Cl)Cl)C1C(=O)OCc1cccc(Oc2ccccc2)c1 (centres unmarked)")
"met"
>>> class_assignment("O=c1c(-c2ccc(O)cc2)coc2cc(O)cc(O)c12")
"met"
>>> class_assignment("CC/C(=C(\\c1ccc(O)cc1)c1ccc(OCCN(C)C)cc1)c1ccccc1 [Afimoxifene (4-Hydroxytamoxifen)]")
"met"
>>> class_assignment("CCCC1COC(Cn2cncn2)(c2ccc(Cl)cc2Cl)O1 (centres unmarked)")
"met"
>>> class_assignment("O=c1c(-c2ccc(O)cc2)coc2cc(O)ccc12")
"met"
>>> class_assignment("C[C@]12CC[C@H]3C(=CCc4cc(O)ccc43)[C@@H]1CCC2=O")
"met"
>>> class_assignment("O=C1C[C@@H](c2ccc(O)cc2)Oc2cc(O)cc(O)c21")
"not met"
>>> class_assignment("CCCCOC(=O)c1ccc(O)cc1")
"not met"
>>> class_assignment("CC(C)(c1ccc(O)cc1)c1ccc(O)cc1")
"met"
>>> class_assignment("O=C(c1ccc(O)cc1O)c1ccc(O)cc1O [2,2',4,4'-Tetrahydroxybenzophenone]")
"met"
>>> class_assignment("CC1(C)[C@H](C(=O)O[C@H](C#N)c2cccc(Oc3ccccc3)c2)[C@@H]1C=C(Br)Br")
"met"
>>> class_assignment("COP(=O)(OC)O/C(=C\\Cl)c1cc(Cl)c(Cl)cc1Cl")
"met"
>>> class_assignment("N#Cc1ccc(C(c2ccc(C#N)cc2)n2cncn2)cc1")
"not met"
>>> class_assignment("C[C@H]1CCCC(=O)CCC/C=C/c2cc(O)cc(O)c2C(=O)O1")
"met"
>>> class_assignment("CCCN(CCC)c1c([N+](=O)[O-])cc(C(F)(F)F)cc1[N+](=O)[O-]")
"met"
>>> class_assignment("O=[N+]([O-])c1ccc(O)c([N+](=O)[O-])c1")
"met"

----------
Test system: human AR (Homo sapiens, UniProt P10275)
Test description: AR2 assay, agonist mode: ligand-dependent AR homodimerization (NanoBiT luciferase complementation) in stable HepG2-AR2 cells;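 further: Log2 fold change of luminescence over DMSO vehicle wells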
Assay type: cell-based
Condition: sheet agonist_fits; Hill model top (efficacy); 0 given where win_model is Constant
Parameter measured: hill_tp

>>> result("C[C@H]1CCCC(=O)CCC/C=C/c2cc(O)cc(O)c2C(=O)O1")
0
>>> result("CCCCOC(=O)c1ccc(O)cc1")
0.09975
>>> result("C[C@]12CC[C@H]3C(=CCc4cc(O)ccc43)[C@@H]1CCC2=O")
3.175
>>> result("CC(C)=CC1C(C(=O)OCN2C(=O)C3=C(CCCC3)C2=O)C1(C)C (stereo not drawn)")
0.4941
>>> result("CCCCNC(=O)n1c(NC(=O)OC)nc2ccccc21")
0
>>> result("O=C1C[C@@H](c2ccc(O)cc2)Oc2cc(O)cc(O)c21")
0.1206
>>> result("O=[N+]([O-])c1ccc(O)c([N+](=O)[O-])c1")
0
>>> result("CC/C(=C(\\c1ccc(O)cc1)c1ccc(OCCN(C)C)cc1)c1ccccc1 [Afimoxifene (4-Hydroxytamoxifen)]")
0
>>> result("O=c1c(-c2ccc(O)cc2)coc2cc(O)cc(O)c12")
0

----------
Test system: human AR (Homo sapiens, UniProt P10275)
Sequence (P10275 1-920) 1: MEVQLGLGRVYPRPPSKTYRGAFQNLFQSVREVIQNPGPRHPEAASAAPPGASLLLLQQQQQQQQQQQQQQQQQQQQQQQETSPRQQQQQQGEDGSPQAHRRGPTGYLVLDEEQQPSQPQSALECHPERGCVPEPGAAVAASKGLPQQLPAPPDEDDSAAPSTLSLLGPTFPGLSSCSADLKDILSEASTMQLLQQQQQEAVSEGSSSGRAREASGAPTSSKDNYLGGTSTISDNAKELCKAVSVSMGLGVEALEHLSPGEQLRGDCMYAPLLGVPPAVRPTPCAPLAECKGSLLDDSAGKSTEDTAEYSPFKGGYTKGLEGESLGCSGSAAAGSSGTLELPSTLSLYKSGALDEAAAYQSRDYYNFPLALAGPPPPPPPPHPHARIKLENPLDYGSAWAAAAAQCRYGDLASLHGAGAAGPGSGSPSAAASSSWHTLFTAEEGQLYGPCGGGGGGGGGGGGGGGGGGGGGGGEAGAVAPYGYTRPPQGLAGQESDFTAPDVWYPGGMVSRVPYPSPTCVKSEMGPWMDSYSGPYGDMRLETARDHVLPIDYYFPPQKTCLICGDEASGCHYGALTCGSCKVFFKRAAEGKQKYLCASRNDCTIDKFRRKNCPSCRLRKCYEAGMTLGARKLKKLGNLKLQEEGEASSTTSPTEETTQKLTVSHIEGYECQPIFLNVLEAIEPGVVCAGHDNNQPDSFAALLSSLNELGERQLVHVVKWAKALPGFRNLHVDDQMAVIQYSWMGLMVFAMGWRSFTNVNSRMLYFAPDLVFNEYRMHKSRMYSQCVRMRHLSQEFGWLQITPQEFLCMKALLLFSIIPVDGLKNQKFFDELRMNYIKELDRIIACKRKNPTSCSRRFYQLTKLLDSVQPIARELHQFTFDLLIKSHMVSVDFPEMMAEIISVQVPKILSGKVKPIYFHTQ
Sequence (P10275 1-920) 2: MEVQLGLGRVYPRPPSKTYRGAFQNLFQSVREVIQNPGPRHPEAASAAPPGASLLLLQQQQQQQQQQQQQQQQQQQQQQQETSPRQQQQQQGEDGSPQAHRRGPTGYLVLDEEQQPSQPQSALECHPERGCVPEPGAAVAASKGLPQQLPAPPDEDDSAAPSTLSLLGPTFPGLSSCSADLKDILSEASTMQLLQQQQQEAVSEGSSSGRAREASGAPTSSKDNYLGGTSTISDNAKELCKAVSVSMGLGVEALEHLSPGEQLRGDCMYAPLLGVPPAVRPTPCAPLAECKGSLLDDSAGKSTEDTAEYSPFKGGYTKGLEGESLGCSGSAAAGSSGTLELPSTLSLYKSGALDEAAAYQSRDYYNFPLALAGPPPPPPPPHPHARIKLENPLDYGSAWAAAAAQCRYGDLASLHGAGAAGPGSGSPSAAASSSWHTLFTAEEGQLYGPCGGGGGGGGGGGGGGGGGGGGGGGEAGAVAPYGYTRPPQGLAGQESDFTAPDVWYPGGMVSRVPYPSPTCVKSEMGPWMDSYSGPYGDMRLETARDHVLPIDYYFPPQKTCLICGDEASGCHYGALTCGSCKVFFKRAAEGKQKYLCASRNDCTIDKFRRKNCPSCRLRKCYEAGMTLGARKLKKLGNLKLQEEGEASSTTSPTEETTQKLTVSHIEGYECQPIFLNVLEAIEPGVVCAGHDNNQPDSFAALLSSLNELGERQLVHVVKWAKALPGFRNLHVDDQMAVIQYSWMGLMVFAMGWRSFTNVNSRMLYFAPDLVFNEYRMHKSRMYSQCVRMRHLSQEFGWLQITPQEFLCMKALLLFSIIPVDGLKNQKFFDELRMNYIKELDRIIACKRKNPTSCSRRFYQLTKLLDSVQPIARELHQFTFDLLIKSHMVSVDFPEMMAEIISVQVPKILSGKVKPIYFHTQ
Test description: cell-based
Design: species or system AR2 cells (HepG2-AR2); NanoLuc complementation AR homodimerization, agonist mode, luminescence gain, AC50 by Hill fit
Condition: hill_ga, spid=No_RNA; agonist mode, 18 h, no CYP expressed
Parameter measured: AC50 (µM)

>>> result("CCCCOC(=O)c1ccc(O)cc1")
15.3
>>> result("O=C(c1ccc(O)cc1O)c1ccc(O)cc1O [2,2',4,4'-Tetrahydroxybenzophenone]")
9.94
>>> result("C[C@]12CC[C@H]3C(=CCc4cc(O)ccc43)[C@@H]1CCC2=O")
2.29

----------
Test system: UniProt P10275
Sequence (P10275 1-920) 1: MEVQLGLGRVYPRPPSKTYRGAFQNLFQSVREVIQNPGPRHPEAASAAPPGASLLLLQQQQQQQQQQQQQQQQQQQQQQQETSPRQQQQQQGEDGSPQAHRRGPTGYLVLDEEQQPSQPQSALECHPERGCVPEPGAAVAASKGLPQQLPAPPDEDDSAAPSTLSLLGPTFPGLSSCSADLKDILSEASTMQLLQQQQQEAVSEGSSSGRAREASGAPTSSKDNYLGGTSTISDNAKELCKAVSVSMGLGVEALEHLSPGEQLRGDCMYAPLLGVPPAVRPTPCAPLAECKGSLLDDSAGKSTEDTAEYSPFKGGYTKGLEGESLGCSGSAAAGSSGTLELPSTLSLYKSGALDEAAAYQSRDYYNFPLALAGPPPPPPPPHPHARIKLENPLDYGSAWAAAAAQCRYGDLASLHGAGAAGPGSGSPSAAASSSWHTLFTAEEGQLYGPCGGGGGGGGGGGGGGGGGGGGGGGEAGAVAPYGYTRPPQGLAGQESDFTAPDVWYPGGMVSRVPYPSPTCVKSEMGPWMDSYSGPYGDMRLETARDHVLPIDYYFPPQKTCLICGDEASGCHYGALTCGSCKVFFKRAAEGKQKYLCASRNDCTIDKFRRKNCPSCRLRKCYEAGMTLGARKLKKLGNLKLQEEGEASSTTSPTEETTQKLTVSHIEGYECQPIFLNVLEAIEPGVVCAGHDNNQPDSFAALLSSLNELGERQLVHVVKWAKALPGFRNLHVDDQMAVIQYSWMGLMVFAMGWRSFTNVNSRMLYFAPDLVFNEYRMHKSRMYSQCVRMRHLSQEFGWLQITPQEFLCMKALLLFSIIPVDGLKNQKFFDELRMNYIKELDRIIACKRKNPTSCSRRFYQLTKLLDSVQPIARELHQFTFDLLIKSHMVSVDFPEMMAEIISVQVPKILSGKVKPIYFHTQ
Sequence (P10275 1-920) 2: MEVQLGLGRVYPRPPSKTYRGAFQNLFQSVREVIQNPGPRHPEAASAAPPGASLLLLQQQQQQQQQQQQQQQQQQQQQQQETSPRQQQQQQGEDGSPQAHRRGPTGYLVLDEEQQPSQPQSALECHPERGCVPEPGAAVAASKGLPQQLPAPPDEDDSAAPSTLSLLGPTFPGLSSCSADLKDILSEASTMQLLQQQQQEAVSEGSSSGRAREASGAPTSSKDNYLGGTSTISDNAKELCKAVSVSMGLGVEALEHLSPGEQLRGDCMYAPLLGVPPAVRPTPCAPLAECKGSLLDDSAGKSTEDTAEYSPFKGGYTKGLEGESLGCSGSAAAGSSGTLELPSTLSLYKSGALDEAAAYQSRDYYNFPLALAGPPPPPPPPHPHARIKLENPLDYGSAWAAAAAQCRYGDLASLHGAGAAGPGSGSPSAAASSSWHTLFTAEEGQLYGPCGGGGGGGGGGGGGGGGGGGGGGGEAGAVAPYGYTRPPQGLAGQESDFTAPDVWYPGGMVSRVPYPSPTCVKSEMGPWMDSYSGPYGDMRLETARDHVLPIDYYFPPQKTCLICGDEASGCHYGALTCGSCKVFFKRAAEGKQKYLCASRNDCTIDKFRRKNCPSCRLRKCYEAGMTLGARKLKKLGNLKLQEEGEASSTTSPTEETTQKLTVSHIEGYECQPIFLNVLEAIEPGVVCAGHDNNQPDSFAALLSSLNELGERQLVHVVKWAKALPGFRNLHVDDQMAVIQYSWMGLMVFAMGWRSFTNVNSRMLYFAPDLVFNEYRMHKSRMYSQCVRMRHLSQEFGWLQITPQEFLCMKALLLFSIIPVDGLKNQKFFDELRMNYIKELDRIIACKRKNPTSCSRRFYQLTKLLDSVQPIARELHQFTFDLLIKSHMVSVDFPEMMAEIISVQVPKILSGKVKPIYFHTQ
Test description: AR2 assay, antagonist mode: disruption of R1881 (10 nM)-induced AR homodimerization in HepG2-AR2 cells
Type: cell-based
Condition: activity call, antagonist mode, 18 h
Parameter measured: AR2 antagonist

>>> result("CC1(C)[C@H](C(=O)O[C@H](C#N)c2cccc(Oc3ccccc3)c2)[C@@H]1C=C(Br)Br")
0
>>> result("CC(C)(c1ccc(O)cc1)c1ccc(O)cc1")
1
>>> result("CC(C)(O)C(=O)Nc1ccc([N+](=O)[O-])c(C(F)(F)F)c1 [Hydroxyflutamide]")
0
>>> result("CCCC1COC(Cn2cncn2)(c2ccc(Cl)cc2Cl)O1 (stereo not drawn)")
1
>>> result("CC12CC1(C)C(=O)N(c1cc(Cl)cc(Cl)c1)C2=O (stereo not drawn)")
1
>>> result("C[C@H]1CCCC(=O)CCC/C=C/c2cc(O)cc(O)c2C(=O)O1")
1
